target: Carbonic anhydrase 14 (Homo sapiens); assay: Activation of transmembrane human carbonic anhydrase-14 incubated for 15 mins prior to testing by stopped-flow CO2 hydrase assay
ASSAY ENDPOINT: KA (µM)

# STRUCTURE STRING, RECORDED VALUE
records = [
    ("NCCc1nc[nH]c1Cl", 38.7),
    ("COC(=O)[C@@H](N)Cc1c[nH]cn1", 0.93),
    ("COC(=O)[C@H](Cc1nc(Cl)[nH]c1Cl)NC(=O)CCN", 10.3),
    ("COC(=O)[C@H](Cc1nc(I)[nH]c1I)NC(=O)CCNC(=O)OC(C)(C)C", 52.7),
    ("COC(=O)[C@H](Cc1nc[nH]c1Br)NC(=O)CCN", 28.4),
    ("COC(=O)[C@H](Cc1nc(I)[nH]c1I)NC(=O)CCN", 20.1),
    ("COC(=O)[C@H](Cc1nc(Br)[nH]c1Br)NC(=O)OC(C)(C)C", 3.51),
    ("COC(=O)[C@H](Cc1c[nH]cn1)NC(=O)CCN", 0.71),
    ("NCCc1nc(Cl)[nH]c1Cl", 38.9),
    ("COC(=O)[C@H](Cc1nc(Br)[nH]c1Br)NC(=O)CCN", 18.9),
    ("COC(=O)[C@@H](N)Cc1nc(I)[nH]c1I", 24.3),
    ("COC(=O)[C@H](Cc1nc[nH]c1I)NC(=O)CCN", 39.2),
    ("NCCc1nc[nH]c1Br", 16.2),
    ("CC(C)(C)OC(=O)NCCc1nc(I)[nH]c1I", 37.1),
    ("NCCc1nc[nH]c1I", 7.1),
    ("COC(=O)[C@H](Cc1nc[nH]c1Br)NC(=O)OC(C)(C)C", 0.92),
    ("COC(=O)[C@H](Cc1nc(Cl)[nH]c1Cl)NC(=O)OC(C)(C)C", 1.4),
    ("NCCc1nc(I)[nH]c1I", 15.5),
    ("COC(=O)[C@H](Cc1nc[nH]c1I)NC(=O)OC(C)(C)C", 13.5),
    ("COC(=O)[C@H](Cc1nc[nH]c1Cl)NC(=O)CCNC(=O)OC(C)(C)C", 7.9),
    ("CC(C)(C)OC(=O)NCCc1nc[nH]c1I", 30.9),
    ("COC(=O)[C@H](Cc1nc(Cl)[nH]c1Cl)NC(=O)CCNC(=O)OC(C)(C)C", 33.5),
    ("COC(=O)[C@H](Cc1nc[nH]c1I)NC(=O)CCNC(=O)OC(C)(C)C", 24.6),
    ("COC(=O)[C@H](Cc1nc[nH]c1Cl)NC(=O)CCN", 15.3),
    ("COC(=O)[C@@H](N)Cc1nc(Br)[nH]c1Br", 22.1),
    ("CC(C)(C)OC(=O)NCCc1nc(Br)[nH]c1Br", 29.5),
]

From: ChEMBL document CHEMBL3352757
